tested on: HBV; assay: Inhibition of HBV DNA replication in HepAD38 cells (qPCR method); assay type: cell-based; conditions: Hepatitis B virus, secreted virus DNA by qPCR
measurement-label: pEC50
Note on units: pEC50 is unitless, being -log10 of a concentration expressed in mol/L.

Before answering, review these 4 worked examples.
CCOC(=O)C1=C(CN2CCN3C(=O)N(c4ccc(C(=O)O)cc4F)C[C@@H]3C2)NC(c2nccs2)=N[C@H]1c1ccc(Cl)cc1Cl 7.80
CCOC(=O)C1=C(CN2CCN3C(=O)N(c4ccc(C(=O)O)c(F)c4)C[C@@H]3C2)NC(c2nccs2)=N[C@H]1c1ccc(F)cc1Cl 7.82
COC(=O)C1=C(CN2CCN3C(=O)N(c4ccc(C(=O)O)cc4F)C[C@@H]3C2)NC(c2nccs2)=N[C@H]1c1ccc(F)cc1Cl 7.70
CCOC(=O)C1=C(CN2CCN3C(=O)N(c4ccc(C(=O)O)c(F)c4)C[C@@H]3C2)NC(c2nccs2)=N[C@H]1c1ccc(Cl)cc1Cl 7.89

Query (compound): CCOC(=O)C1=C(CN2CCN3C(=O)N(c4ccc(C(=O)O)cc4F)C[C@@H]3C2)NC(c2nccs2)=N[C@H]1c1ccc(F)cc1Br ; field requested: pEC50
7.51

Next compound: CCOC(=O)C1=C(CN2CCN3C(=O)N(c4ccc(C(=O)O)c(F)c4)C[C@@H]3C2)NC(c2nccs2)=N[C@H]1c1ccc(F)cc1Br
7.80

Try COC(=O)C1=C(CN2CCN3C(=O)N(c4ccc(C(=O)O)c(F)c4)C[C@@H]3C2)NC(c2nccs2)=N[C@H]1c1ccc(F)cc1Cl next.
8.00
